Reference source for all entries: PubChem BioAssay AID2060899

# Test system: 565726-208-R1-J5-PDC complex spheroids, growth inhibition;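 also: spheroids exposed to compounds for seven days before readout; 100% = DMSO vehicle control viability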
# RUN_DESCRIPTION: Anticancer human tumor 565726-208-R1-J5-PDC patient-derived pancreatic adenocarcinoma cell line growth inhibition [RAS]
# ASSAY_SETUP: second compound 0.316 µM; first compound 0.0316 µM; hits give low values
QUANTITY: viability, T/C (%)

>  <MOLECULE>
Nc1ccn(C2OC(CO)C(O)C2(F)F)c(=O)n1 (stereo not given) + C#Cc1c(F)ccc2cc(O)cc(-c3ncc4c(N5CC6CCC(C5)N6)nc(OCC56CCCN5CC(F)C6)nc4c3F)c12

>  <ENDPOINT_RESULT>
54.9

$$$$
>  <MOLECULE>
Cc1nc(N2CCC3(CC2)COC(C)C3N)c(CO)nc1Sc1ccnc(N)c1Cl (stereo not given) + C#Cc1c(F)ccc2cc(O)cc(-c3ncc4c(N5CC6CCC(C5)N6)nc(OCC56CCCN5CC(F)C6)nc4c3F)c12

>  <ENDPOINT_RESULT>
130

$$$$
>  <MOLECULE>
CCC(CC)c1cc(NC2CCC(N)C2)n2nccc2n1 (stereo not given) + C#Cc1c(F)ccc2cc(O)cc(-c3ncc4c(N5CC6CCC(C5)N6)nc(OCC56CCCN5CC(F)C6)nc4c3F)c12

>  <ENDPOINT_RESULT>
133

$$$$
>  <MOLECULE>
CC(Nc1ccc2c(c1)OCCn1cc(N3C(=O)OCC3C(F)F)nc1-2)C(N)=O (stereo not given) + C#Cc1c(F)ccc2cc(O)cc(-c3ncc4c(N5CC6CCC(C5)N6)nc(OCC56CCCN5CC(F)C6)nc4c3F)c12

>  <ENDPOINT_RESULT>
105

$$$$
>  <MOLECULE>
CC(C)n1nc(-c2ccc3oc(N)nc3c2)c2c(N)ncnc21 + C#Cc1c(F)ccc2cc(O)cc(-c3ncc4c(N5CC6CCC(C5)N6)nc(OCC56CCCN5CC(F)C6)nc4c3F)c12

>  <ENDPOINT_RESULT>
50.6

$$$$
